# System: Escherichia coli 25922
# measurement-notes: Efficacy against systemic infections (septicemia) in mice
# Type: in vivo
# condition-summary: Escherichia coli, 96 h, E.coli 25922, sc 1 and 3 h after challenge, survival day 4
result-type: ED50

stdin: Entry `CON1CC/C(=C\C2=C(C(=O)O)N3C(=O)[C@@H](NC(=O)/C(=N\O)c4csc(N)n4)[C@H]3SC2)C1=O` needs its ED50 filled in; supply it.
stdout: < 0.1 mg/kg

stdin: Entry `COc1ccc(N2CC/C(=C\C3=C(C(=O)O)N4C(=O)[C@@H](NC(=O)/C(=N\O)c5csc(N)n5)[C@H]4SC3)C2=O)cc1` needs its ED50 filled in; supply it.
stdout: < 0.3 mg/kg

stdin: Entry `Nc1nc(/C(=N/O)C(=O)N[C@@H]2C(=O)N3C(C(=O)O)=C(/C=C4\CCN(CCF)C4=O)CS[C@H]23)cs1` needs its ED50 filled in; supply it.
stdout: < 0.1 mg/kg

stdin: Entry `Nc1nc(/C(=N/O)C(=O)N[C@@H]2C(=O)N3C(C(=O)O)=C(/C=C4\CCN(CC(F)(F)F)C4=O)CS[C@H]23)cs1` needs its ED50 filled in; supply it.
stdout: 0.07 mg/kg

stdin: Entry `Nc1nc(/C(=N/O)C(=O)N[C@@H]2C(=O)N3C(C(=O)O)=C(/C=C4\CCN(C5CC5)C4=O)CS[C@H]23)cs1` needs its ED50 filled in; supply it.
stdout: ≤ 0.1 mg/kg

stdin: Entry CO/N=C(\C(=O)N[C@@H]1C(=O)N2C(C(=O)O)=C(CSc3nc(=O)c(=O)[nH]n3C)CS[C@H]12)c1csc(N)n1 [Ceftriaxone, reference compound] needs its ED50 filled in; supply it.
stdout: ≤ 0.01 mg/kg

stdin: Entry C=CC1=C(C(=O)O)N2C(=O)[C@@H](NC(=O)/C(=N\O)c3csc(N)n3)[C@H]2SC1 [Cefdinir, reference compound] needs its ED50 filled in; supply it.
stdout: < 1 mg/kg
